Give measured cell viability for each item. Keep answers brief.
System: UCD52 (cells of a triple-negative basal-like breast cancer xenograft);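 also: PDX cells carrying CMV promoter-driven luciferase, viability read as total photon flux per second by IVIS imaging following D-luciferin, vehicle control 0.1% DMSO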
Test: cell viability (% of vehicle); higher = less cytotoxic
Conditions: 10 µM; 72 h
Respond using a number only.

State its cell viability for this compound: COc1cc2ncnc(Nc3ccc(F)c(Cl)c3)c2cc1OCCCN1CCOCC1 [Gefitinib (ZD1839)]
52.2

State its cell viability for this compound: CCOC(=O)C(CCc1ccccc1)NC1CSC(c2cccs2)CN(CC(=O)O)C1=O.Cl (stereo not given) [Temocapril HCl]
88.7

State its cell viability for this compound: C[C@H]1O[C@@H](O[C@H]2[C@@H](O)C[C@H](O[C@H]3[C@@H](O)C[C@H](O[C@H]4CC[C@@]5(C)[C@H](CC[C@@H]6[C@@H]5C[C@@H](O)[C@]5(C)[C@@H](C7=CC(=O)OC7)CC[C@]65O)C4)O[C@@H]3C)O[C@@H]2C)C[C@H](O)[C@@H]1O
66.6

State its cell viability for this compound: COc1cc(Nc2ncc(F)c(Nc3ccc4c(n3)N(COP(=O)([O-])[O-])C(=O)C(C)(C)O4)n2)cc(OC)c1OC.[Na+].[Na+] [R788 disodium]
58

State its cell viability for this compound: CC(=O)O.C[C@H](N)C(=O)O.NCCCC[C@H](N)C(=O)O.N[C@@H](CCC(=O)O)C(=O)O.N[C@@H](Cc1ccc(O)cc1)C(=O)O [glatiramer acetate]
118
